Entries annotated with measured IC50
Tested on: P-Akt (S473)
protocol-notes: Cell based AlphaLISA assay, inhibition of P-Akt (S473) (mTORC2 substrate phosphorylation) in MDA-MB-468 cells
condition-summary: Homo sapiens, MDA-MB-468, 4 h, AlphaLISA, two to four hours at 37° C., read-out: pIC50 for Inhibition of mTORC1 and mTORC2 Substrate Phosphorylation, p-AKT 1/2/3 -(S473) (converted)

- compound: "CO[C@H]1C[C@@H]2CC[C@@H](C)[C@@](O)(O2)C(=O)C(=O)N2CCCC[C@H]2C(=O)O[C@H]([C@H](C)C[C@@H]2CC[C@H](n3cc(COC(=O)NCCOCCOCCOCCC(=O)NCCOCCOCCOCCC(=O)NCCCCn4nc(-c5cc6cc(O)ccc6[nH]5)c5c(N)ncnc54)nn3)[C@H](OC)C2)C/C(=N/OCc2ccccc2)[C@H](C)/C=C(\\C)[C@@H](O)[C@@H](OC)C(=O)[C@H](C)C[C@H](C)/C=C/C=C/C=C/1C [Example 157]"
  target-or-test-system: "P-Akt (S473)"
  IC50: "> 1000 nM"
- compound: "CO[C@H]1C[C@@H]2CC[C@@H](C)[C@@](O)(O2)C(=O)C(=O)N2CCCC[C@H]2C(=O)O[C@H]([C@H](C)C[C@@H]2CC[C@H](n3cc(CCCC(=O)NCCOCCOCCOCCC(=O)NCCOCCOCCOCCOCCC(=O)NCCCCn4nc(-c5cc6cc(O)ccc6[nH]5)c5c(N)ncnc54)nn3)[C@H](OC)C2)CC(=O)[C@H](C)/C=C(\\C)[C@@H](O)[C@@H](OC)C(=O)[C@H](C)C[C@H](C)/C=C/C=C/C=C/1C [Example 133]"
  target-or-test-system: "P-Akt (S473)"
  IC50: "31.6 to 1000 nM"
- compound: "CO[C@H]1C[C@@H]2CC[C@@H](C)[C@@](O)(O2)C(=O)C(=O)N2CCCC[C@H]2C(=O)O[C@H]([C@H](C)C[C@@H]2CC[C@H](n3cc(CCCC(=O)NCCOCCOCCOCCC(=O)NCCOCCOCCOCCC(=O)NCCCCn4nc(-c5cc6cc(O)ccc6[nH]5)c5c(N)ncnc54)nn3)[C@H](OC)C2)CC(=O)[C@H](C)/C=C(\\C)[C@@H](O)[C@@H](OC)C(=O)[C@H](C)C[C@H](C)/C=C/C=C/C=C/1C [Example 131]"
  target-or-test-system: "P-Akt (S473)"
  IC50: "31.6 to 1000 nM"
- compound: "CO[C@H]1C[C@@H]2CC[C@@H](C)[C@@](O)(O2)C(=O)C(=O)N2CCCC[C@H]2C(=O)O[C@H]([C@H](C)C[C@@H]2CC[C@H](n3cc(COC(=O)NCCOCCOCCOCCC(=O)NCCOCCOCCOCCC(=O)NCCCCn4nc(-c5cc6cc(O)ccc6[nH]5)c5c(N)ncnc54)nn3)[C@H](OC)C2)C[C@@H](OC)[C@H](C)/C=C(\\C)[C@@H](O)[C@@H](OC)C(=O)[C@H](C)C[C@H](C)/C=C/C=C/C=C/1C [Example 146]"
  target-or-test-system: "P-Akt (S473)"
  IC50: "> 1000 nM"
- compound: "CO[C@H]1C[C@@H]2CC[C@@H](C)[C@@](O)(O2)C(=O)C(=O)N2CCCC[C@H]2C(=O)O[C@H]([C@H](C)C[C@@H]2CC[C@@H](OCCCCc3cn(CCOCCOCCOCCOCCOCCOCCC(=O)N4CCC(Cn5nc(-c6ccc7oc(N)nc7c6)c6c(N)ncnc65)C4)nn3)[C@H](OC)C2)CC(=O)[C@H](C)/C=C(\\C)[C@@H](O)[C@@H](OC)C(=O)[C@H](C)C[C@H](C)/C=C/C=C/C=C/1C (stereo partly drawn) [Example 8]"
  target-or-test-system: "P-Akt (S473)"
  IC50: "3.16 to 31.6 nM"
- compound: "CO[C@H]1C[C@@H]2CC[C@@H](C)[C@@](O)(O2)C(=O)C(=O)N2CCCC[C@H]2C(=O)O[C@H]([C@H](C)C[C@@H]2CC[C@@H](OCCCCc3cn(CCOCCOCCOCCOCCNC(=O)CCCCC(=O)NCCCCn4nc(-c5ccc6oc(N)nc6c5)c5c(N)ncnc54)nn3)[C@H](OC)C2)CC(=O)[C@H](C)/C=C(\\C)[C@@H](O)[C@@H](OC)C(=O)[C@H](C)C[C@H](C)/C=C/C=C/C=C/1C [Example 103]"
  target-or-test-system: "P-Akt (S473)"
  IC50: "3.16 to 31.6 nM"
- compound: "CO[C@H]1C[C@@H]2CC[C@@H](C)[C@@](O)(O2)C(=O)C(=O)N2CCCC[C@H]2C(=O)O[C@H]([C@H](C)C[C@@H]2CC[C@H](n3nncc3-c3cccc(-c4cnc(N5CCN(Cc6cn(CCOCCOCCOCCOCCC(=O)NCCCCn7nc(-c8ccc9oc(N)nc9c8)c8c(N)ncnc87)nn6)CC5)nc4)c3)[C@H](OC)C2)CC(=O)[C@H](C)/C=C(\\C)[C@@H](O)[C@@H](OC)C(=O)[C@H](C)C[C@H](C)/C=C/C=C/C=C/1C [Example 30]"
  target-or-test-system: "P-Akt (S473)"
  IC50: "3.16 to 31.6 nM"
- compound: "CO[C@H]1C[C@@H]2CC[C@@H](C)[C@@](O)(O2)C(=O)C(=O)N2CCCC[C@H]2C(=O)O[C@H]([C@H](C)C[C@@H]2CC[C@H](n3cc(COC(=O)NCCOCCOCCOCCC(=O)NCc4cnc(N5CCN(c6ncc(C(=O)NCCCCn7nc(-c8ccc9oc(N)nc9c8)c8c(N)ncnc87)cn6)CC5)nc4)nn3)[C@H](OC)C2)CC(=O)[C@H](C)/C=C(\\C)[C@@H](O)[C@@H](OC)C(=O)[C@H](C)C[C@H](C)/C=C/C=C/C=C/1C [Example 183]"
  target-or-test-system: "P-Akt (S473)"
  IC50: "3.16 to 31.6 nM"
- compound: "COC(=O)N[C@H]1C[C@@H]2CC[C@@H](C)[C@@](O)(O2)C(=O)C(=O)N2CCCC[C@H]2C(=O)O[C@H]([C@H](C)C[C@@H]2CC[C@@H](OCCCCc3cn(CCOCCOCCOCCOCCOCCOCCOCCOCCC(=O)NCCCCn4nc(-c5cnc6[nH]ccc6c5)c5c(N)ncnc54)nn3)[C@H](OC)C2)CC(=O)[C@H](C)/C=C(\\C)[C@@H](O)[C@@H](OC)C(=O)[C@H](C)C[C@H](C)/C=C/C=C/C=C/1C [Example 81]"
  target-or-test-system: "P-Akt (S473)"
  IC50: "31.6 to 1000 nM"
